Assay: in vivo
Conditions: female, Domestic Yorkshire Crossbred, pig, urine, other: continuous intravesical infusion, 0.22 mg/kg/day
measure: concentration at 8 day (ng/mL)
Numbers only, in ng/mL.

For reference, reported concentration at 8 day for `COc1cc(OC)cc(N(CCNC(C)C)c2ccc3ncc(-c4cnn(C)c4)nc3c2)c1` stands at 1270
